test system: T47D; experiment: NCI tumour cell line growth inhibition, 48 h
Calls of active or inactive are those of the source. No stated cut-off is given here; in the data, active = GI50 up to about 1.1 µM and inactive = higher.
Please go through the items and note down their GI50.

Before answering, review these 4 worked examples.
Task: GET /values?readout=GI50&item= "COc1cc(COC(=O)N[C@H](C(=O)O)C(C)(C)C)c([N+](=O)[O-])cc1OC"
Result: > 100 µM (inactive)

Task: Same lookup for CC1=C(/C=C/Cl)CC(Cl)C(C)(Cl)C1 (stereo unspecified) , please.
Result: > 100 µM (inactive)

Task: Same lookup for "O=C(c1cc2c(c3ccccc13)NC1(CCCCC1)N=C2C(F)(F)F)C(F)(F)F" , please.
Result: 2.93 µM (inactive)

Task: Same lookup for "CN(C)CCNC(=O)c1cccc2cc([N+](=O)[O-])ccc12" , please.
Result: 2.79 µM (inactive)

Go through the items and report each one's GI50.
1. CCOC(=O)c1cc(=O)c2cccc3c2n1CCS3
2. CCOC(=O)NC(C(=O)OCC)(N1CCN(c2cc3c(cc2F)c(=O)c(C(=O)O)cn3CC)CC1)C(F)(F)F (stereo unspecified)
3. C/C(=N\NC(=O)c1ccncc1)c1cccc(C(F)(F)F)c1

Result:
["> 100 µM (inactive)", "> 100 µM (inactive)", "> 10 µM (inactive)"]

Go through the items and report each one's GI50.
1. COc1ccc(C2SC(=N)Nc3c2c(C)nn3C(=O)c2ccc(Cl)cc2)cc1OC (stereo unspecified)
2. O=c1c2ccccc2sc2ccccc12
3. Nc1ccccc1/N=N/c1c(S(=O)(=O)O)cc2cc(S(=O)(=O)O)cc(O)c2c1O
4. C=C1CC(C)(COc2cc(=O)oc3ccccc23)OC1=O (stereo unspecified)

Result:
1. > 10 µM (inactive)
2. > 100 µM (inactive)
3. > 100 µM (inactive)
4. 2.48 µM (inactive)
